- protocol_text: Confirmation screen for delayed death inhibitors of the malarial parasite plastid, 96 hour incubation; note: nearly all actives have a fitted effect of over 60% in size
- setup_conditions: P. falciparum luciferase growth in erythrocytes; series mostly up to 28.7 µM
About 1,400 (61%) of roughly 2,300 compounds were called active. Roughly 29% stayed inconclusive and do not appear here. Calls come from the whole dose curve; as a rule, active = well fitted inhibition curve with a large enough effect; inconclusive = small, poorly fitted or top-dose-only effect, or effect the other way; inactive = no such curve, though single readings can be large or run the other way. The set was probably picked from earlier hits. The list shows a part of the results.
Outcomes: TRUE for active, FALSE for inactive

- compound: "COc1ccc(C(C)(C)C)cc1NC(=O)c1[nH]c(C)c(C(C)=O)c1C"
  category_label: "TRUE"
- compound: "CC(=O)c1c(C)[nH]c(C(=O)COC(=O)COc2ccccc2F)c1C"
  category_label: "FALSE"
- compound: "CC(C)c1[nH]nc2c1C(C1C=CCCC1)C(C#N)=C(N)O2 (stereo not drawn)"
  category_label: "TRUE"
- compound: "Cc1cc(C)c2[nH]c(C(=O)N3CCC(n4nccc4NC(=O)C4CC4)CC3)c(C)c2c1"
  category_label: "TRUE"
- compound: "CN(Cc1ccc(Cl)c(Cl)c1)C(=O)C1=CC=CN2CCS(=O)(=O)N=C12"
  category_label: "TRUE"
- compound: "COc1ccc(CNn2c(-c3ccccc3F)nc3ccccc3c2=O)cc1OC"
  category_label: "TRUE"
- compound: "CCCCNC(=O)c1onc(CSc2cc(C)ccc2C)c1C(=O)O"
  category_label: "FALSE"
- compound: "N#Cc1ncc(-c2ccc3c(c2)OCCOCCOCCOCCOCCO3)nc1C#N"
  category_label: "TRUE"
- compound: "CCOCCCNC(=S)N1CCN(c2nc(-c3ccccc3)cs2)CC1"
  category_label: "TRUE"
- compound: "Cc1c(C(=O)N2CCC(n3nccc3NC(=O)C3CC3)CC2)[nH]c2ccc(Cl)cc12"
  category_label: "TRUE"
- compound: "Nc1cc[n+](CC(=O)c2ccc3c(c2)OCCO3)cc1"
  category_label: "TRUE"
- compound: "Cc1ccc2c(c1)C1CC(C)(O2)N(c2cccc(C(=O)N3CCN(c4ccccn4)CC3)c2)C(=O)N1 (stereo not drawn)"
  category_label: "TRUE"
- compound: "Cc1sc(N/N=C/c2cccnc2)nc1-c1ccccc1"
  category_label: "TRUE"
- compound: "COc1cc(O)cc(O)c1C(=O)/C=C/c1ccccc1"
  category_label: "TRUE"
- compound: "CC(=O)NC(=O)COC(=O)/C=C/c1c(C)nn(Cc2c(Cl)cccc2Cl)c1Cl"
  category_label: "FALSE"
- compound: "Cc1cc(C(C)(C)C)cc(C)c1CCNC(=O)c1c(C)noc1C"
  category_label: "TRUE"
- compound: "CC(C)CC1c2[nH]c3ccccc3c2CCN1CCCn1cccn1 (stereo not drawn)"
  category_label: "TRUE"
- compound: "Cc1sc(NC(=O)c2c(F)cccc2F)nc1-c1ccccc1"
  category_label: "FALSE"
- compound: "Cc1ccc(C)c(-c2nnc(OCC(=O)Nc3cc(C)on3)c3ccccc23)c1"
  category_label: "TRUE"
- compound: "Cc1c(-c2ccccc2)nc2ccccc2c1C(=O)Nc1ccncc1"
  category_label: "TRUE"
- compound: "CCc1nn(CCCC(=O)NCc2ccccc2C)c(=O)c2cc3occc3n12"
  category_label: "TRUE"
- compound: "COc1ccc2nc3cc(Cl)ccc3c(Nc3cc(C(C)C)c(O)cc3C)c2c1"
  category_label: "TRUE"
- compound: "CCOC(=O)C1CCN(C(=O)C(=O)Nc2ccc3nc4n(c(=O)c3c2)CCCCC4)CC1"
  category_label: "TRUE"
- compound: "Cc1cc(Sc2nnc(/N=C/N(C)C)s2)c2ccccc2n1"
  category_label: "TRUE"
- compound: "CCOc1ccc(-c2cc(C(=O)N/N=C(\\C)c3cccnc3)c3ccccc3n2)c(OCC)c1"
  category_label: "TRUE"
- compound: "COc1ccc(CSC2=NCCN2)cc1Br"
  category_label: "TRUE"
- compound: "CCOc1ccccc1NC(=O)c1cc(S(=O)(=O)NCc2ccco2)ccc1F"
  category_label: "TRUE"
- compound: "Cc1cc(C(C)(C)C)cc(C)c1CCNC(=O)c1ccc[n+]([O-])c1"
  category_label: "TRUE"
- compound: "Cc1nn(C)c(C)c1C(C)NC(=O)c1ccc(OC2CCN(Cc3ccccn3)CC2)cc1 (stereo not drawn)"
  category_label: "FALSE"
- compound: "COc1ccc2c(c1)c(C(=O)N/N=C/c1ccc(OC)c(OC)c1)c(C)n2C"
  category_label: "TRUE"
- compound: "O=C(COc1ccccc1Cl)NC(=S)N1CCc2ccccc21"
  category_label: "TRUE"
- compound: "COc1ccc(CN2CCC(Oc3ccc(C(=O)NCc4ccccn4)cc3)CC2)c(F)c1"
  category_label: "TRUE"
- compound: "COc1ccc(-c2cc(CNC(=O)CCl)on2)cc1"
  category_label: "TRUE"
